The measurements presented in this section are drawn from patent US20250270301A1.

- target_system: T1, full length recombinant human 2N4R tau (human, UniProt P10636 1-758)
- T1 construct: bought from rPeptide; pHrodo Red maleimide-labelled where it stands in uptake assays; also called tau1-441; full length tau
- T1 sequence (P10636 other isoform, or with tags, fused parts or gaps limits assumed): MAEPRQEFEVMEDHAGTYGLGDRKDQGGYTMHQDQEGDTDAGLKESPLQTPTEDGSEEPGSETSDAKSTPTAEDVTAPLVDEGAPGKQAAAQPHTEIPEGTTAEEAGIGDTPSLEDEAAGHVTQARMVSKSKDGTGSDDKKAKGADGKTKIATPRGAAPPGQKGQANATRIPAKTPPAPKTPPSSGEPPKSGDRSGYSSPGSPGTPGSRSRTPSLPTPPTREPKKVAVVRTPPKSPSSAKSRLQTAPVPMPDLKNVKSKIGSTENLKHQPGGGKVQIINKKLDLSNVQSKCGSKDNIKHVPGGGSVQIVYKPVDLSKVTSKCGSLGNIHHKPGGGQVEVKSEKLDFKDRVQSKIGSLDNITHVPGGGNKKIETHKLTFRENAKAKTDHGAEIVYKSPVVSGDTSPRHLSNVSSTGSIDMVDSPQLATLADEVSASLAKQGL
- protocol_notes: SPR SCK, IgG on Protein A, tau in flow
property_name: pKd
Hey, just a heads up that pKd is the negative log base 10 of the concentration in molar.

Incoming: Look up and state reported pKd for #44_VH4VK4 humanised hIgG1 (antibody, V domains shown, also called VH4Vκ4; pVH/pVL) VH: QVQLQESGPGLVKPSETLSLTCTVSGIDLSSYAMAWVRQAPGKGLEWIGCIDRRGGTFYASWVKGRFTISKDTSKTTVDLQMTSLTAEDTATYFCARDSGAFDPWGQGTLVTVSS VL: DIQMTQSPSSLSASVGDRVTITCQASQSVYDNYLAWYQQKPGQPPKLLIHAASNLASGVPSRFSGSGSGTEFTLTISSLQPDDFATYYCLGEFSCTTTDCNVFGGGTKVEIK
Outgoing: 8.18

Incoming: Look up and state reported pKd for #44_VH4VK4_H11/pVL (antibody, V domains shown, also called Clone VH4_H11; #44_VH4_H11) VH: QVQLQESGPGLVKPSETLSLTCTVSGIDLSSYAMAWVRQAPGKGLEWIGAIDARGATFYASWVKGRFTISKDTSKTTVDLQMTSLTAEDTATYFCARDSGAFDPWGQGTLVTVSS VL: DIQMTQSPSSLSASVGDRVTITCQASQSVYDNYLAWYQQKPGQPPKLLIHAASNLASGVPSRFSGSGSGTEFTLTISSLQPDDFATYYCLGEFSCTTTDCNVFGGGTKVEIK
Outgoing: 8.25

With those in mind, consider the next binder.
Incoming: Look up and state reported pKd for #44_VH4_H14/L2 (antibody, V domains shown, also called Clone VH4_H14/L2) VH: QVQLQESGPGLVKPSETLSLTCTVSGIDLSSYAMAWVRQAPGKGLEWIGAIDSAGSTFYASWVKGRSTISKDTSKTTVDLQMTSLTAEDTATYFCARDSGAFDPWGQGTLVTVSS VL: DIQMTQSPSSLSASVGDRVTITCQASQSVYDNYLAWYQQKPGQPPKLLIHAASNLASGVPSRFSGSGSGTEFTLTISSLQPDDFATYYCLGEFSCQDTDCNVFGGGTKVEIKR
Outgoing: 7.90
